Hello, the source for this data is patent US20200147235A1, in case you need it.

- system under test: T1, Cynomolgus monkey CD98 ECD with C-terminal His-tag (cynomolgus monkey, UniProt P08195 105-529 (human entry))
- T1 construct: also called cyCD98 ECD; recombinant cynomolgus monkey CD98 extracellular domain
- T1 chain: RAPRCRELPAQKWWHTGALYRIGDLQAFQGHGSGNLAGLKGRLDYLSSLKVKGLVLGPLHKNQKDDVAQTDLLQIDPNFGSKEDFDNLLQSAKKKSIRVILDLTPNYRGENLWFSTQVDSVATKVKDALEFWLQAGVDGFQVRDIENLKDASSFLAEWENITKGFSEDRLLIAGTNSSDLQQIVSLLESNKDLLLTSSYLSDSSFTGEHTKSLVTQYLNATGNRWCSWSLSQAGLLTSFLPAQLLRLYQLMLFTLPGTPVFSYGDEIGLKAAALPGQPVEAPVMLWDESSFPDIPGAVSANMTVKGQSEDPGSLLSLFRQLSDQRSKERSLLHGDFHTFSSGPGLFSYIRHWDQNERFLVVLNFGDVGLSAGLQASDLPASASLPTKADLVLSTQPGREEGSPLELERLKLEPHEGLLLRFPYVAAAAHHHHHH
- experimental protocol: SPR Biacore, anti-Fc capture of mAb, CD98 ECD analyte
readout type: kon (M⁻¹ s⁻¹)
Use M⁻¹ s⁻¹ as the unit, but write only the number.

Q: # query: kon of entry Recombinant anti-CD98 chimeric antibody chAb5 (antibody, human IgG1, V domains shown) VH: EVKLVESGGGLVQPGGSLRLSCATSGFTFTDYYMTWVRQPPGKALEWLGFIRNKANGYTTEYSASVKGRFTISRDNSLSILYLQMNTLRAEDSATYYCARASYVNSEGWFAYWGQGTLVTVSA VL: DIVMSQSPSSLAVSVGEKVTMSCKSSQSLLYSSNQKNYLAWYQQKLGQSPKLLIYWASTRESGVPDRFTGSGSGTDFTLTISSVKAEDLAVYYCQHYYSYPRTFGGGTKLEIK
A: 18000

Q: # query: kon of entry Recombinant anti-CD98 chimeric antibody chAb14 (antibody, human IgG1, V domains shown) VH: EVKLQQSGDELVRPGASVKISCKASGYTFTSYSMHWVKERPGQGLEWIGAIFPIIGTTEYNQKFKGKATLTADKSSNTANMELSRLTSEDSAVYYCARVYLSYFDYWGQGVMVTVSS VL: DIQMTQSPSFLSASVGDRVTINCKASQNINKYLDWYQRKHGEAPKLLIYNTNNLQTGIPSRFSGSGSGTDYTLTISSLQPEDVATYFCLQHSSRYTFGAGTKLELK
A: 12000

Q: # query: kon of entry Recombinant anti-CD98 chimeric antibody chAb12 (antibody, human IgG1, V domains shown) VH: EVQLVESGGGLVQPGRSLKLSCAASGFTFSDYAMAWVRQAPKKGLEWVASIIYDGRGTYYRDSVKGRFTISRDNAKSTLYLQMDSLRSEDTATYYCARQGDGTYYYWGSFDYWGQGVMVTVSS VL: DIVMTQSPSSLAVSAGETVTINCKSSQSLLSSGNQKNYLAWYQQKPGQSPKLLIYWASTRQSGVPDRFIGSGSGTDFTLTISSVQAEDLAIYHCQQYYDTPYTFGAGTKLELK
A: 24000
